Values compiled from PubChem BioAssay (NCI).

# key: entry, value: TGI
System: HOP-62 NSCLC
test.details: NCI tumour cell line growth inhibition, 48 h

# example entries with known answers
[
  {
    "compound": "O=[N+]([O-])c1ccc(C2N3CCCCC3[C@H]3CCCCN23)cc1 (some centres undefined)",
    "TGI": "> 100 µM"
  },
  {
    "compound": "O=C(c1ccc(Cl)cc1Cl)N(/N=C/C=C/c1ccccc1)c1nnc(-c2ccccc2)c(-c2ccccc2)n1",
    "TGI": "> 100 µM"
  },
  {
    "compound": "O=C(Nc1ccc(-n2cc(-c3ccncc3)c(-c3ccc(O)c(Cl)c3)n2)cc1)c1cc(C(F)(F)F)cc(C(F)(F)F)c1",
    "TGI": "> 25 µM"
  }
]

Reported TGI for Cc1nc2c(n1CC(C)C)C(=O)c1ccccc1C2=O was > 100 µM

Reported TGI for CN1CCCC1c1cccnc1.O=C(O)c1ccccc1O.O=C([O-])c1ccccc1[OH2+].O=C([O-])c1ccccc1[OH2+].O=C([O-])c1ccccc1[OH2+].[Cu+2] (centres undefined) was > 100 µM

Reported TGI for Cc1cc(NS(=O)(=O)c2ccc(Nc3c4ccccc4nc4c(C(=O)Nc5ccc(S(N)(=O)=O)cc5)cccc34)cc2)no1 was > 100 µM

Reported TGI for O=C1c2ccccc2C(=Nc2ccc3ccccc3c2)C1(C1=C(c2ccccc2)C(=Nc2ccc3ccccc3c2)c2ccccc21)c1ccccc1 (centres undefined) was > 100 µM

Reported TGI for CCN1C(=O)N(C)C(O)c2c1nc1ccccn1c2=O (centres undefined) was 98.6 µM

Reported TGI for CC1=NCC[N+]1(CCc1ccccc1)Cc1ccccc1 (centres undefined) was > 100 µM

Reported TGI for O=C(NC(=S)Nc1ccccn1)c1ccccc1 was > 100 µM

Reported TGI for CC(C)=CC(=O)c1[nH]c2ccccc2c1CC(=O)NCCc1cn(C(c2ccccc2)(c2ccccc2)c2ccccc2)cn1 was > 100 µM

Reported TGI for O=C1O[C@@H](c2ccccc2)C[C@H]1CN1CCOCC1 was > 100 µM

====

System: OVCAR-8 ovarian
test.details: NCI tumour cell line growth inhibition, 48 h
# key: entry, value: TGI

# example entries with known answers
[
  {
    "compound": "O=c1c2c([nH]c3ccccc13)CCCC2",
    "TGI": "> 100 µM"
  },
  {
    "compound": "Cc1cc(NS(=O)(=O)c2ccc(Nc3c4ccccc4nc4c(C(=O)Nc5ccc(S(N)(=O)=O)cc5)cccc34)cc2)no1",
    "TGI": "> 100 µM"
  },
  {
    "compound": "O=C1c2ccccc2-c2nc(-c3ccncc3)cc3c2c1nc1ccccc13",
    "TGI": "> 100 µM"
  }
]

Entry O=C1c2ccccc2C(=O)N1C/C=N/NS(=O)(=O)c1ccc(F)cc1 ; assay system OVCAR-8 ovarian; TGI recorded at > 100 µM

====

# key: entry, value: TGI
Test system: SK-MEL-5 melanoma
test.details: NCI tumour cell line growth inhibition, 48 h
Quick reminder: number only, in µM, skip the unit.

# example entries with known answers
[
  {
    "structure.notation": "N#C/C(=C\\c1cn(Cc2ccccc2)c2ccccc12)C(=O)Nc1ncc(Cc2ccccc2Cl)s1",
    "readout.unit": "µM",
    "TGI": 7.08
  },
  {
    "structure.notation": "CCn1c2ccccc2c2cc(/C=C(/C#N)C(N)=S)ccc21",
    "readout.unit": "µM",
    "TGI": 20.2
  }
]

Proceeding to the next molecule to report its TGI.
Entry N#Cc1c(-c2ccc(Cl)cc2)csc1NC(=O)Nc1ccc(Cl)c(C(F)(F)F)c1 ; assay system SK-MEL-5 melanoma; TGI recorded at 3.7
